Test system: SW480
procedure.details: Antitumor activity against human SW480 cells assessed as reduction in cell viability incubated for 48 hrs by CCK8 assay
Type: functional, cell-based
condition.label: SW480, 48 h
quantity.measured: pIC50
Keep in mind that pIC50 stands for -log10 of concentration in molar terms.

Exercise: Give me measured pIC50, please, for this molecule: C=CCc1ccc(O)c(-c2ccc(O)c(CC=C)c2)c1 [HONOKIOL]
Solution: 4.82

* * *

Test system: Glioblastoma cell line
procedure.details: Induction of ferroptosis in human primary glioblastoma cells assessed as decrease in GPX4 protein expression incubated for 48 hrs by Western blot analysis
Type: functional, cell-based
quantity.measured: pIC50
Keep in mind that pIC50 stands for -log10 of concentration in molar terms.

Exercise: Give me measured pIC50, please, for this molecule: COc1ccc(/C=C/C(=O)C(CC2CCC2)C(=O)/C=C/c2ccc(OC)c(OC)c2)cc1OC [ROSOLUTAMIDE]
Solution: 5.70
